Measured values drawn from PubChem BioAssay (EPA / NIEHS) for this set.

Assay: BSK_CASM3C_SRB: Viability Assessment in the BioMAP Diversity Plus: CASM3C Assay (AID 2283050);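 note: total protein by SRB staining as cytotoxicity measure in parallel cultures; cells exposed to compound for 24 h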
Conditions: primary human coronary artery smooth muscle cells
Active and inactive are the calls of the source. Rule for the calls: active = hit-call score of the fitted dose curve at least 0.9, where 1 is the maximum; inactive = score below 0.9.
Valid outcomes are listed here; reply with one: yes (1) = active, no (0) = inactive

Use these answered entries as a reference point.
> print(dat)
                                   molecule  class.name
1   O=S(=O)(O)C(F)(F)C(F)(F)C(F)(F)C(F)(F)F      no (0)
2                       c1ccc(-c2ccccc2)cc1      no (0)
3                            Cc1cc(O)ccc1Cl      no (0)
4  Oc1ccc(C(c2ccc(O)cc2)(C(F)(F)F)C(F)(F)F)cc1     yes (1)
5                                 Sc1ccccc1      no (0)

Can you look up the reported call for O=C(O)C(F)(F)C(F)(F)C(F)(F)C(F)(F)C(F)(F)C(F)(F)C(F)(F)C(F)(F)C(F)(F)F for me?
no (0)

Status in this test for Cc1cccc([N+](=O)[O-])c1 ?
no (0)

Query: recorded result category for CCC(C)c1cc([N+](=O)[O-])cc([N+](=O)[O-])c1O (configuration not stated) in this test
yes (1)

Called result for O=C(N[C@H]1CN2CCC1CC2)c1cc2ccoc2cn1
no (0)

Any idea what this test logged for O=C(O)C(F)(F)C(F)(F)C(F)(F)C(F)(F)C(F)(F)C(F)(F)C(F)(F)C(F)(F)F ?
no (0)

====

Biological target: Estrogen receptor (Homo sapiens)
Assay: CCTE_Deisenroth_AIME_384WELL_LUC_Active: CCTE's 384-well Estrogen Receptor Transactivation Assay with AIME metabolic competence (ERTA luciferase; metabolism positive), Deisenroth Lab (AID 2284030)
Results filed as inconclusive are left out. Active and inactive are the calls of the source. How the source made its calls: active means hit-call score of the fitted dose curve at least 0.9, where 1 is the maximum; inconclusive means response in the unintended direction; inactive means score below 0.9.
Please reply with one of these outcomes: T (active), F (inactive)

Some entries whose results are on file:
> print(dat)
                         structure.notation                     tested.target  class.name
1                            Clc1ccc(Cl)cc1  Estrogen receptor (Homo sapiens)           F
2  O=S(=O)(O)C(F)(F)C(F)(F)C(F)(F)C(F)(F)C(F)(F)C(F)(F)F  Estrogen receptor (Homo sapiens)           F
3                              CCOCCOC(C)=O  Estrogen receptor (Homo sapiens)           F
4                                  Nn1cnnc1  Estrogen receptor (Homo sapiens)           F
5                       c1ccc(-c2ccccc2)cc1  Estrogen receptor (Homo sapiens)           T

# lookup: test call for C[C@]12CCC(=O)C=C1CC[C@@H]1[C@@H]2CC[C@@]2(C)[C@H]1CC[C@]2(C)O
T

====

Read-out: growth arrest and DNA damage 45 (GADD45A), GADD45A (gene 1647)
Assay: LTEA_HepaRG_GADD45A: Life Technologies and Expression Analysis (LTEA) Assay for growth arrest and DNA damage 45 (GADD45A) using HepaRG (AID 2283458)
Conditions: mRNA level, 48 h; actives raise or lower the signal
Calls of active or inactive are those of the source. How the source made its calls: active means hit-call score of the fitted dose curve at least 0.9, where 1 is the maximum; inactive means score below 0.9.
Pick from T = active, F = inactive when you respond.

> print(dat)
                                   compound  class.name
1  C[C@]12CCC(=O)C=C1CC[C@@H]1[C@@H]2CC[C@]2(C)C(=O)CC[C@@H]12           T
2    CCOC(=O)C(O)(c1ccc(Cl)cc1)c1ccc(Cl)cc1           F
3  CC(C)(O)C(=O)Nc1ccc([N+](=O)[O-])c(C(F)(F)F)c1           F
4                   COc1ccc(O)c(C(C)(C)C)c1           F

Moving on to another compound below.
# lookup: test call for COS(=O)(=O)OC
F

====

Read-out: Forkhead box O3 (FOXO3), FOXO3 (gene 2309)
Experiment: LTEA_HepaRG_FOXO3: Life Technologies and Expression Analysis (LTEA) Assay for Forkhead box O3 (FOXO3) using HepaRG (AID 2283459)
Details: mRNA level, 48 h; actives raise or lower the signal
The source made the active and inactive calls. Rule for the calls: active = hit-call score of the fitted dose curve at least 0.9, where 1 is the maximum; inactive = score below 0.9.
Outcome (select one): yes for active, no for inactive

// known answers, use as guide
> print(dat)
                                   molecule  class.name
1                                 C=CC(N)=O          no
2               Oc1c(Cl)c(Cl)c(Cl)c(Cl)c1Cl         yes
3  O=C(NC(=O)c1cc(F)c(F)cc1Cl)Nc1cc(F)ccc1N1CCC(C(=O)O)CC1          no

Please state the recorded outcome for this molecule: O=S(=O)(O)C(F)(F)C(F)(F)C(F)(F)C(F)(F)F
no

// param item: ClC1=C(Cl)[C@]2(Cl)[C@@H]3[C@@H](Cl)[C@H]4O[C@H]4[C@@H]3C1(Cl)C2(Cl)Cl ; yields the recorded call
no

I would be grateful if you could indicate the recorded call for CCCCCCCCOC(=O)c1ccccc1C(=O)OCCCCCCCC .
no

====

Molecular target: Estrogen receptor beta (Homo sapiens) (UniProt Q92731)
Sequence (Q92731 whole entry, looked up): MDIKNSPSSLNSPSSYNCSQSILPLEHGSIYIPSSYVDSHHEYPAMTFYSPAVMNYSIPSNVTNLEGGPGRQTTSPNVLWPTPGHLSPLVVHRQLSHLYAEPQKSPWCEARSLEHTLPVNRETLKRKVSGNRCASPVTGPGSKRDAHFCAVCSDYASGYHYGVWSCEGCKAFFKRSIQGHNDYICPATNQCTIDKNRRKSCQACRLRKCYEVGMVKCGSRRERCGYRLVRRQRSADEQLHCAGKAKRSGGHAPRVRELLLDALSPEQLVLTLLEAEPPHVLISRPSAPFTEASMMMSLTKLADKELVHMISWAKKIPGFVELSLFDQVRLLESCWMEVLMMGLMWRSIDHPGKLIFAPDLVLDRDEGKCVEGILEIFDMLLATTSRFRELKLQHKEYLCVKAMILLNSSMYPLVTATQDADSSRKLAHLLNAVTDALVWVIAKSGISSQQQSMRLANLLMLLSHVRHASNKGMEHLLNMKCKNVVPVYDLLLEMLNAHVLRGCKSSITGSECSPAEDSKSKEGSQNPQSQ
Experiment: OT_ER_ERbERb_0480: Odyssey Thera (OT) 8-hour HEK293T Protein-Complementation Assay for Estrogen Receptor-beta/-beta Homodimer (AID 2283357);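 note: active means signal gain over DMSO baseline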
Inconclusive results are not listed. Active and inactive are the calls of the source. Rule for the calls: active = hit-call score of the fitted dose curve at least 0.9, where 1 is the maximum; inconclusive = response in the unintended direction; inactive = score below 0.9.
// allowed return values: active, inactive

> print(dat)
                                   compound                             tested.target  class.name
1  O=C(O)C(F)(F)C(F)(F)C(F)(F)C(F)(F)C(F)(F)F  Estrogen receptor beta (Homo sapiens) (UniProt Q92731)    inactive
2                           Cc1ccc(O)c(C)c1  Estrogen receptor beta (Homo sapiens) (UniProt Q92731)    inactive
3                                  OCC(O)CO  Estrogen receptor beta (Homo sapiens) (UniProt Q92731)    inactive
4  CO/C=C(/C(=O)OC)c1ccccc1COc1cccc(C(F)(F)F)n1  Estrogen receptor beta (Homo sapiens) (UniProt Q92731)    inactive
5  CC(C)C(=O)OCC(C)(C)C(OC(=O)C(C)C)C(C)C (configuration not stated)  Estrogen receptor beta (Homo sapiens) (UniProt Q92731)    inactive
6          CN(C)c1nc(=O)n(C2CCCCC2)c(=O)n1C  Estrogen receptor beta (Homo sapiens) (UniProt Q92731)    inactive

Assay result, entry CCC(C)c1cc([N+](=O)[O-])cc([N+](=O)[O-])c1O (configuration not stated) — outcome?
inactive

Each compound tested received a call. Report the one for Nc1ccc(-c2ccc(N)cc2)cc1 .
inactive

Field: outcome | Entry: O=C(N[C@H]1CN2CCC1CC2)c1cc2ccoc2cn1
inactive

I would be grateful if you could indicate the recorded call for NS(=O)(=O)C(F)(F)C(F)(F)C(F)(F)C(F)(F)C(F)(F)C(F)(F)C(F)(F)C(F)(F)F .
active

What did the test return for CN(C)CCO ?
inactive

// param item: CC(C)(O)C(=O)Nc1ccc([N+](=O)[O-])c(C(F)(F)F)c1 ; yields the recorded call
inactive

====

Experiment: Tanguay_ZF_120hpf_SOMI_legacy: (Legacy) Oregon State University Tanguay Lab 120 Hour Post-fertilization zebrafish Assay for Somite Malformation (AID 2283647)
Results filed as inconclusive are left out. Active and inactive are the calls of the source. Rule for the calls: active = hit-call score of the fitted dose curve at least 0.9, where 1 is the maximum; inconclusive = response in the unintended direction; inactive = score below 0.9.
Just give me one of these, please: 1.0 (active), 0.0 (inactive)

> print(dat)
     compound  class.name
1  Cc1ccccc1O         0.0

What classification did CCCCCCCCOC(=O)c1ccccc1C(=O)OCCCCCCCC end up with in this test?
0.0

Recorded call for C=CC(N)=O ?
0.0

Query: recorded result category for ClC1=C(Cl)[C@]2(Cl)[C@@H]3[C@H]4C[C@H]([C@@H]5O[C@H]45)[C@@H]3[C@@]1(Cl)C2(Cl)Cl in this test
1.0

Answer briefly: the call reported for O=C(O)C(F)(F)C(F)(F)C(F)(F)C(F)(F)C(F)(F)C(F)(F)C(F)(F)C(F)(F)F in this assay.
0.0

Tell me the recorded outcome of this test for Oc1c(Cl)c(Cl)c(Cl)c(Cl)c1Cl .
0.0

Answer briefly: the call reported for Cc1ccc(O)c(C)c1 in this assay.
0.0

// return assay outcome for ClC1=C(Cl)[C@]2(Cl)[C@@H]3[C@@H]4C[C@@H]([C@H]5O[C@@H]45)[C@@H]3[C@@]1(Cl)C2(Cl)Cl
0.0

Would you mind telling me which call this test gave CCC(C)(CC)c1cc(NC(=O)c2c(OC)cccc2OC)on1 ?
0.0

Hey, what did the test say about COS(=O)(=O)OC ?
0.0
